- Procedure details: Drug interaction: effect of conmed on vibegron PK
- Assay type: in vivo, human
- Experimental parameters: human, plasma, oral, 100 mg QD + tolterodine ER 4 mg QD
Measured property: Cmax (ng/mL)

[[record]]
molecule = "O=C(Nc1ccc(C[C@@H]2CC[C@H]([C@H](O)c3ccccc3)N2)cc1)[C@@H]1CCc2nccc(=O)n21 [Vibegron]"
value_measured = 163


###

- Procedure details: Single rising oral dose Phase 1 PK, healthy adults (young males unless stated)
- Format: in vivo, human
- Experimental parameters: male, human, plasma, oral, 300 mg, single 300 mg; read-out: AUC0-24
Measured property: AUC(0-t) (ng·h/mL)

[[record]]
compound = "O=C(Nc1ccc(C[C@@H]2CC[C@H]([C@H](O)c3ccccc3)N2)cc1)[C@@H]1CCc2nccc(=O)n21 [Vibegron]"
measured_property = "AUC(0-t)"
value_measured = 4430

